Tested on: MIAPACA-2 cell line
Protocol notes: In vitro cell proliferation assay (CCK-8) in MIAPACA-2 cell line
Type: cell-based
Assay conditions: Homo sapiens, MIA PaCa-2; TC2: Test Concentration of 10 uM; 72 hours
Outcome measure: inhibition at 10 µM

>>> result("C=CC(=O)N1CCN(c2nc(OC[C@@H]3CCCN3C)c(C#N)c3c2CCN(c2cccc4ccccc24)C3)C[C@H]1CC#N")
"75 to 100%"

// query GET /values?readout=inhibition at 10 µM&system=MIAPACA-2 cell line&item= C=CC(=O)N1CCN(c2nc(N3CCN(S(C)(=O)=O)CC3)c(C#N)c3c2CCN(c2cccc4ccccc24)C3)CC1
// result 75 to 100%

// query GET /values?readout=inhibition at 10 µM&system=MIAPACA-2 cell line&item= C=CC(=O)N1CCN(c2nc(OC[C@@H]3CCCN3C)c(C#N)c3c2CCN(c2cc(O)cc4ccccc24)C3)CC1CC#N (stereo partly shown)
// result 75 to 100%

// query GET /values?readout=inhibition at 10 µM&system=MIAPACA-2 cell line&item= C=CC(=O)N1CCN(c2nc(OC[C@@H]3CCCN3C)c(C#N)c3c2CCN(c2cncc4ccccc24)C3)CC1
// result 50 to 75%
